From: PubChem BioAssay AID2060622

Give pIC50 for every item shown.
system: 242566-281-R-J2-PDC complex spheroid viability; experiment: Anticancer human tumor 242566-281-R-J2-PDC patient-derived pancreatic carcinoma cell line growth inhibition [CLK]; conditions: curve of first compound; second compound 0.316 µM;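 further: spheroids exposed to compounds for 7 days before readout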
pIC50: −log10 of the molar value.

Past entries and their recorded results:
{"compound": "O=C(c1cc(Cc2n[nH]c(=O)c3ccccc23)ccc1F)N1CCN(C(=O)C2CC2)CC1 + CN1CCN(c2cc(C(=O)Nc3cc4cc(-c5cnn(C)c5)ccc4cn3)ccn2)CC1", "reported_value": "> 7.50"}
{"compound": "NC(=O)C(=Cn1cnc(-c2cc(C(F)(F)F)cc(C(F)(F)F)c2)n1)c1cncnc1 + CN1CCN(c2cc(C(=O)Nc3cc4cc(-c5cnn(C)c5)ccc4cn3)ccn2)CC1", "reported_value": "> 8.02"}
{"compound": "CC(CO)NC(=O)c1cc(-c2ccc(Cl)cc2)nn(-c2cnn(C)c2)c1=O (stereo unspecified) + CN1CCN(c2cc(C(=O)Nc3cc4cc(-c5cnn(C)c5)ccc4cn3)ccn2)CC1", "reported_value": "> 7.50"}

Batch: pIC50 for all items listed.
1. CCN1CCN(Cc2ccc(Nc3ncc(F)c(-c4cc(F)c5nc(C)n(C(C)C)c5c4)n3)nc2)CC1 + CNC(=O)c1ccc(Nc2nc(OC3CCCC3)c3c(-c4ccc5nc(C)oc5c4)c[nH]c3n2)c(OC)c1
2. C=CC(=O)N1CCN(c2nc(=O)n(-c3c(C)ccnc3C(C)C)c3nc(-c4c(O)cccc4F)c(F)cc23)C(C)C1 (stereo unspecified) + CN1CCN(c2cc(C(=O)Nc3cc4cc(-c5cnn(C)c5)ccc4cn3)ccn2)CC1
3. O=C(c1cc(Cc2n[nH]c(=O)c3ccccc23)ccc1F)N1CCN(C(=O)C2CC2)CC1 + CNC(=O)c1ccc(Nc2nc(OC3CCCC3)c3c(-c4ccc5nc(C)oc5c4)c[nH]c3n2)c(OC)c1
4. Nc1ccccc1NC(=O)c1ccc(CNC(=O)OCc2cccnc2)cc1 + CNC(=O)c1ccc(Nc2nc(OC3CCCC3)c3c(-c4ccc5nc(C)oc5c4)c[nH]c3n2)c(OC)c1
5. C=CC(=O)N1CCN(c2nc(=O)n(-c3c(C)ccnc3C(C)C)c3nc(-c4c(O)cccc4F)c(F)cc23)C(C)C1 (stereo unspecified) + CNC(=O)c1ccc(Nc2nc(OC3CCCC3)c3c(-c4ccc5nc(C)oc5c4)c[nH]c3n2)c(OC)c1
6. CCc1c2c(nc3ccc(O)cc13)-c1cc3c(c(=O)n1C2)COC(=O)[C@]3(O)CC + CNC(=O)c1ccc(Nc2nc(OC3CCCC3)c3c(-c4ccc5nc(C)oc5c4)c[nH]c3n2)c(OC)c1
7. CC1(C)CCC(CN2CCN(c3ccc(C(=O)NS(=O)(=O)c4ccc(NCC5CCOCC5)c([N+](=O)[O-])c4)c(Oc4cnc5[nH]ccc5c4)c3)CC2)=C(c2ccc(Cl)cc2)C1 + CN1CCN(c2cc(C(=O)Nc3cc4cc(-c5cnn(C)c5)ccc4cn3)ccn2)CC1
8. CC1COCCN1c1cc(C2(S(C)(=N)=O)CC2)nc(-c2ccnc3[nH]ccc23)n1 (stereo unspecified) + CN1CCN(c2cc(C(=O)Nc3cc4cc(-c5cnn(C)c5)ccc4cn3)ccn2)CC1

Result:
1. < 6.00
2. > 7.50
3. < 5.00
4. 5.24
5. < 5.00
6. 8.30
7. > 7.50
8. > 7.50
